- Substrate: CC(=O)Oc1ccc([N+](=O)[O-])cc1
- PROTOCOL_DESCRIPTION: purified protein
- Format: biochemical, Dorea formicigenerans
- REPORTED_CONDITIONS: 10 mM Tris-HCl pH 8.4, 2.5% Triton X-100, 40 °C
What kcat was measured for each of the following?
Answers are plain numbers, in s⁻¹.

PROTEIN	MEASURED_ATTRIBUTE	UNITS_LABEL	RECORDED_NUMBER
DfFAE (Dorea formicigenerans; V252A) (protein, E. coli T7; trimeric by SEC (117 kDa)) MNQKKECMDVHVNGLKFHVQTFGSGVPIIMIMGLGAPGDKWKHNYELLSKWFWCIVPDNRGAGLSDKPEAESYTTEQMADDIIGIMDALDIKKAHVMGVSMGGAIAQQVALKVPDRVLSLILTSTFASVSPAFKKALNLICELKEDTDPAVLKQLNLWMTYGQYTQIHHPEKIEKSIEEDAAYPYPMPVYAYKAQCGACLSHNTAGRLHELKMPVLIAAGAKDLFMNIEKTMELVHGIPQAEFYLAPEGGHAHQWEYPEPYDSVVVGFLMKHTN	kcat	s⁻¹	12.8

Please look at the following protein next.
In: What value of kcat has been recorded for this entry: DfFAE (Dorea formicigenerans; W255A) (protein, E. coli T7; trimeric by SEC (117 kDa)) MNQKKECMDVHVNGLKFHVQTFGSGVPIIMIMGLGAPGDKWKHNYELLSKWFWCIVPDNRGAGLSDKPEAESYTTEQMADDIIGIMDALDIKKAHVMGVSMGGAIAQQVALKVPDRVLSLILTSTFASVSPAFKKALNLICELKEDTDPAVLKQLNLWMTYGQYTQIHHPEKIEKSIEEDAAYPYPMPVYAYKAQCGACLSHNTAGRLHELKMPVLIAAGAKDLFMNIEKTMELVHGIPQAEFYLAPEGGHVHQAEYPEPYDSVVVGFLMKHTN
Out: 12.1
